// provenance: patent US6844435B2

Value kind: melting point

Worked cases, answers included:
Smiles input: C/C(=C\c1cccc(C#N)c1)c1nc2ccc3nc(Nc4c(Cl)cccc4Cl)n(C)c3c2c(=O)[nH]1
melting point: 288 to 290 °C
--
Smiles input: Cn1c(Nc2c(Cl)cccc2Cl)nc2ccc3nc(C4=CCN(C(=O)OC(C)(C)C)C4)[nH]c(=O)c3c21
melting point: 206 to 208 °C
--
Smiles input: Cn1c(Nc2c(Cl)cccc2Cl)nc2ccc3nc(-c4cccs4)[nH]c(=O)c3c21
melting point: > 300 °C
--
Smiles input: Cn1c(Nc2c(Cl)cccc2Cl)nc2ccc3nc(C4CCCC4)[nH]c(=O)c3c21
melting point: 283 to 284 °C
--
Smiles input: Cn1c(Nc2c(Cl)cccc2Cl)nc2ccc3nc(-c4cccnc4)[nH]c(=O)c3c21
melting point: > 300 °C

Now consider a different compound.
**Q:** Query (compound): "Cn1c(Nc2c(Cl)cccc2Cl)nc2ccc3nc(-c4ccc(S(=O)(=O)N5CCN(C(=O)OC(C)(C)C)CC5)cc4)[nH]c(=O)c3c21" ; field requested: melting point
**A:** 190 °C

----------
Value kind: melting point

Compound: Cn1c(Nc2c(Cl)cccc2Cl)nc2ccc3nc(C4=CC(N5CCNCC5)CC4)[nH]c(=O)c3c21 (stereo not drawn)
melting point: 173 to 174 °C
--
Compound: Cn1c(Nc2c(Cl)cccc2Cl)nc2ccc3nc(-c4ccc(-c5ccccc5[N+](=O)[O-])o4)[nH]c(=O)c3c21
melting point: 289 to 292 °C
--
Compound: Cn1c(Nc2c(Cl)cccc2Cl)nc2ccc3nc(C4=CC5C=CC4N5)[nH]c(=O)c3c21 (stereo not drawn)
melting point: > 300 °C
--
Compound: C/C(=C\c1ccccc1C#N)c1nc2ccc3nc(Nc4c(Cl)cccc4Cl)n(C)c3c2c(=O)[nH]1
melting point: 284 to 288 °C
--
Compound: C/C(=C\c1cc([N+](=O)[O-])cc([N+](=O)[O-])c1)c1nc2ccc3nc(Nc4c(Cl)cccc4Cl)n(C)c3c2c(=O)[nH]1
melting point: 315 to 317 °C (dec.)

Now consider a different compound.
**Q:** Query (compound): "Cn1c(Nc2c(Cl)cccc2Cl)nc2ccc3nc(C(=O)c4c[nH]c5ccccc45)[nH]c(=O)c3c21" ; field requested: melting point
**A:** > 300 °C

----------
Please provide measured melting point for the entries that follow.

Worked cases, answers included:
Compound: CCc1nc2ccc3nc(Nc4c(Cl)cccc4Cl)n(C)c3c2c(=O)[nH]1 [Example 53]
melting point: > 300 °C
--
Compound: CN1CCC=C(c2nc3ccc4nc(Nc5c(Cl)cccc5Cl)n(C)c4c3c(=O)[nH]2)C1 [Example 54]
melting point: 255 °C
--
Compound: Cn1c(Nc2c(Cl)cccc2Cl)nc2ccc3nc(C4=CC5C=CC4N5C(=O)OCc4ccccc4)[nH]c(=O)c3c21 (stereo not drawn)
melting point: > 275 °C (dec.)
--
Compound: CC(=O)OCC(=O)N1CCN(S(=O)(=O)c2cccc(-c3nc4ccc5nc(Nc6c(Cl)cccc6Cl)n(C)c5c4c(=O)[nH]3)c2)CC1 [Example 85]
melting point: 246 °C (dec.)

List reported melting point for each of these compounds:
1. Cn1c(Nc2c(Cl)cccc2Cl)nc2ccc3nc(-c4csc([C@@H]5CCCC[C@H]5NC(=O)OCc5ccccc5)n4)[nH]c(=O)c3c21 [Example 75]
2. Cn1c(Nc2c(Cl)cccc2Cl)nc2ccc3nc(C(=O)NCCO)[nH]c(=O)c3c21 [Example 41]
3. CCCCCc1nc2ccc3nc(Nc4c(Cl)cccc4Cl)n(C)c3c2c(=O)[nH]1 [Example 64]

**A:**
1. 163 to 169 °C
2. 265 to 268 °C
3. 257 to 260 °C

----------
Value kind: melting point

Compound: C/C=C(\C)c1nc2ccc3nc(Nc4c(Cl)cccc4Cl)n(C)c3c2c(=O)[nH]1
melting point: 278 °C (dec.)
--
Compound: CCOC(=O)c1nc2ccc3nc(Nc4c(Cl)cccc4Cl)n(C)c3c2c(=O)[nH]1
melting point: 275 to 277 °C
--
Compound: Cn1c(Nc2c(Cl)cccc2Cl)nc2ccc3nc(Nc4ccccc4)[nH]c(=O)c3c21
melting point: 185 to 192 °C

List reported melting point for each of these compounds:
1. Cn1c(Nc2c(Cl)cccc2Cl)nc2ccc3nc(-c4ccoc4)[nH]c(=O)c3c21
2. Cn1c(Nc2c(Cl)cccc2Cl)nc2ccc3nc(C4=CC5CNCC5C4)[nH]c(=O)c3c21 (centres unmarked)
3. Cn1c(Nc2c(Cl)cccc2Cl)nc2ccc3nc(-c4csc([C@@H]5CCCC[C@H]5N)n4)[nH]c(=O)c3c21
4. Cn1c(Nc2c(Cl)cccc2Cl)nc2ccc3nc(C4=CCCC4)[nH]c(=O)c3c21

**A:**
["> 300 °C", "265 °C (dec.)", "295 to 300 °C (dec.)", "295 °C (dec.)"]

List reported melting point for each of these compounds:
1. Cn1c(Nc2c(Cl)cccc2Cl)nc2ccc3nc(C4=CCC(C#N)C4)[nH]c(=O)c3c21 (centres unmarked)
2. CC(=O)C1CC=C(c2nc3ccc4nc(Nc5c(Cl)cccc5Cl)n(C)c4c3c(=O)[nH]2)C1 (centres unmarked)
3. C=Cc1nc2ccc3nc(Nc4c(Cl)cccc4Cl)n(C)c3c2c(=O)[nH]1
4. Cn1c(Nc2c(Cl)cccc2Cl)nc2ccc3nc(-c4ccccc4)[nH]c(=O)c3c21

**A:**
1. > 295 °C (dec.)
2. > 215 °C (dec.)
3. 278 to 284 °C (dec.)
4. > 300 °C
